- System: MDA-MB-231
- Method: Antiproliferative activity against human MDA-MB-231 cells measured after 24 hrs by MTT assay
- Type: functional, cell-based
- Condition: MDA-MB-231, 24 h
Where a SMILES comes first, the peptide text is derived from it. [ ]: non-standard residue; d: D form. The star is where a group is joined. Lauroyl = CCCCCCCCCCCC(=O)*; Aib = CC(C)(N)C(=O)O; βAla = NCCC(=O)O
Readout kind: pIC50
Keep in mind that pIC50 stands for -log10 of concentration in molar terms.

Task: pIC50 lookup needed for CCCCCCCCCCCC(=O)NC(C)(C)C(=O)N1CCC[C@H]1C(=O)NC(C)(C)C(=O)NC(C)(C)C(=O)N1CCC[C@H]1C(=O)NC(C)(C)C(=O)NC(C)(C)C(=O)N1CCC[C@H]1C(=O)NC(C)(C)C(=O)NC(C)(C)C(=O)NCCC(=O)N[C@@H](C)C(=O)NC(C)(C)C(=O)NC(C)(C)C(=O)NCCC(=O)NC(C)(C)C(=O)NC(C)(C)C(=O)NC(C)(C)C(=O)N[C@@H](C)C(=O)NCCC(=O)O (Lauroyl-[Aib]P[Aib][Aib]P[Aib][Aib]P[Aib][Aib][βAla]A[Aib][Aib][βAla][Aib][Aib][Aib]A[βAla]-OH) , thanks.
Output: 4.95

----------
- Method: Toxicity in zebra fish AB embryo assessed as mortality at 10 uM incubated for 48 hrs relative to control
- Set-up: species or system Danio rerio
- Condition: zebrafish, read-out: Activity
Readout kind: mortality at 48 h, 10 µM (%)
Give just the numeric value; % need not be written.

Task: mortality at 48 h, 10 µM lookup needed for CCCCCCCCCCCC(=O)NC(C)(C)C(=O)N1CCC[C@H]1C(=O)NC(C)(C)C(=O)NC(C)(C)C(=O)N1CCC[C@H]1C(=O)NC(C)(C)C(=O)NC(C)(C)C(=O)N1CCC[C@H]1C(=O)N[C@@H](C)C(=O)NC(C)(C)C(=O)NCCC(=O)N[C@@H](C)C(=O)NC(C)(C)C(=O)NC(C)(C)C(=O)NCCC(=O)NC(C)(C)C(=O)NC(C)(C)C(=O)NC(C)(C)C(=O)N[C@@H](C)C(=O)NCCC(=O)O , thanks.
Output: 100

----------
- Test system: Staphylococcus aureus
- Method: Antimicrobial activity against Staphylococcus aureus ATCC 25923 measured after 16 hrs by CLSI protocol based method
- Format: functional
Where a SMILES comes first, the peptide text is derived from it. [ ]: non-standard residue; d: D form. The star is where a group is joined. Lauroyl = CCCCCCCCCCCC(=O)*; Decanoyl = CCCCCCCCCC(=O)*; Aib = CC(C)(N)C(=O)O; βAla = NCCC(=O)O
Readout kind: MIC (µg/mL)
Give just the numeric value; µg/mL need not be written.

Task: MIC lookup needed for CCCCCCCCCC(=O)NC(C)(C)C(=O)N1CCC[C@H]1C(=O)NC(C)(C)C(=O)NC(C)(C)C(=O)N1CCC[C@H]1C(=O)NC(C)(C)C(=O)NC(C)(C)C(=O)N1CCC[C@H]1C(=O)N[C@@H](C)C(=O)NC(C)(C)C(=O)NCCC(=O)N[C@@H](C)C(=O)NC(C)(C)C(=O)NC(C)(C)C(=O)NCCC(=O)NC(C)(C)C(=O)NC(C)(C)C(=O)NC(C)(C)C(=O)N[C@@H](C)C(=O)NCCC(=O)O (Decanoyl-[Aib]P[Aib][Aib]P[Aib][Aib]PA[Aib][βAla]A[Aib][Aib][βAla][Aib][Aib][Aib]A[βAla]-OH) , thanks.
Output: 16

Task: MIC lookup needed for NC[C@H]1O[C@H](O[C@H]2[C@H](O)[C@@H](O[C@H]3O[C@H](CO)[C@@H](O)[C@H](N)[C@H]3O)[C@H](N)C[C@@H]2N)[C@H](O)[C@@H](O)[C@@H]1O , thanks.
Output: 1

Task: MIC lookup needed for CCCCCCCCCCCC(=O)NC(C)(C)C(=O)N1CCC[C@H]1C(=O)NC(C)(C)C(=O)NC(C)(C)C(=O)N1CCC[C@H]1C(=O)NC(C)(C)C(=O)NC(C)(C)C(=O)N1CCC[C@H]1C(=O)N[C@@H](C)C(=O)NC(C)(C)C(=O)NCCC(=O)N[C@@H](C)C(=O)NC(C)(C)C(=O)NC(C)(C)C(=O)NCCC(=O)NC(C)(C)C(=O)NC(C)(C)C(=O)NC(C)(C)C(=O)N[C@@H](C)C(=O)NCCC(=O)O , thanks.
Output: 4

Task: MIC lookup needed for CCCCCCCCCCCC(=O)NC(C)(C)C(=O)N1CCC[C@H]1C(=O)NC(C)(C)C(=O)NC(C)(C)C(=O)N1CCC[C@H]1C(=O)NC(C)(C)C(=O)NC(C)(C)C(=O)N1CCC[C@H]1C(=O)NC(C)(C)C(=O)NC(C)(C)C(=O)NCCC(=O)N[C@@H](C)C(=O)NC(C)(C)C(=O)NC(C)(C)C(=O)NCCC(=O)NC(C)(C)C(=O)NC(C)(C)C(=O)NC(C)(C)C(=O)N[C@@H](C)C(=O)NCCC(=O)O (Lauroyl-[Aib]P[Aib][Aib]P[Aib][Aib]P[Aib][Aib][βAla]A[Aib][Aib][βAla][Aib][Aib][Aib]A[βAla]-OH) , thanks.
Output: 4

Task: MIC lookup needed for CCCCCCCCCC(=O)NC(C)(C)C(=O)N1CCC[C@H]1C(=O)NC(C)(C)C(=O)NC(C)(C)C(=O)N1CCC[C@H]1C(=O)NC(C)(C)C(=O)NC(C)(C)C(=O)N1CCC[C@H]1C(=O)NC(C)(C)C(=O)NC(C)(C)C(=O)NCCC(=O)N[C@@H](C)C(=O)NC(C)(C)C(=O)NC(C)(C)C(=O)NCCC(=O)NC(C)(C)C(=O)NC(C)(C)C(=O)NC(C)(C)C(=O)N[C@@H](C)C(=O)NCCC(=O)O (Decanoyl-[Aib]P[Aib][Aib]P[Aib][Aib]P[Aib][Aib][βAla]A[Aib][Aib][βAla][Aib][Aib][Aib]A[βAla]-OH) , thanks.
Output: 16
